- TEST_DESCRIPTION: 1H-NMR titration of template/functional monomer complexation
- Format: binding
- CONDITION_DETAILS: S template, d6-DMSO, 25 °C; read-out: app. Kdiss with ACM, template's indolyl amino group
Structures can show the parent of a compound that is named as a salt.
READOUT_LABEL: Kd (µM)
Answers are plain numbers, in µM.

The molecule NCCc1c[nH]c2ccc(O)cc12 [S, serotonin hydrochloride] showed Kd equal to 430

====

- TEST_DESCRIPTION: Competitive ligand binding assay on DS-MIP with S as fluorescent probe
- CONDITION_DETAILS: 25 mg polymer, S 5.90 μM, 5 mL 4:1 methanol/water, 28 ± 1 °C, mean ± SD, n = 3
- Procedure: In this study, DS-MIP was employed as the sorbent phase for the determination of binding characteristics of the ergot family of alkaloids by competitive ligand binding assay experiment. The ability of the various ergot alkaloids (ergocryptine, ergocornine, ergocristine, ergonovine, agroclavine, pergolide and terguride) to displace bound D and S from the binding sites was measured. Figures 8(a,b) show competitive binding assays with the ergots in the presence of D and S as fluorescent probes. […]
Counter-ions that a name gives are not always drawn.
Exam item: assign Condition met to entries whose Ki is below 10 µM and Condition not met to entries at or above 10 µM. Note that a value of exactly 10 µM receives Condition not met.

Prompt: Consider the compound CC1=C[C@@H]2c3cccc4[nH]cc(c34)C[C@H]2N(C)C1 [Agroclavine, agroclavine] . Is its Ki strictly less than 10 µM?
Response: Condition met

Prompt: Consider the compound CC(C)[C@H]1C(=O)N2CCC[C@H]2[C@]2(O)O[C@](NC(=O)[C@@H]3C=C4c5cccc6[nH]cc(c56)C[C@H]4N(C)C3)(C(C)C)C(=O)N12 [Ergocornine, ergocornine] . Is its Ki strictly less than 10 µM?
Response: Condition not met

Prompt: Consider the compound CCCN1C[C@H](CSC)C[C@@H]2c3cccc4[nH]cc(c34)C[C@H]21 [Pergolide, pergolide mesylate] . Is its Ki strictly less than 10 µM?
Response: Condition not met

Prompt: Consider the compound C[C@@H](CO)NC(=O)[C@@H]1C=C2c3cccc4[nH]cc(c34)C[C@H]2N(C)C1 [Ergonovine, ergonovine maleate] . Is its Ki strictly less than 10 µM?
Response: Condition not met

Prompt: Consider the compound CC(C)C[C@H]1C(=O)N2CCC[C@H]2[C@]2(O)O[C@](NC(=O)[C@@H]3C=C4c5cccc6[nH]cc(c56)C[C@H]4N(C)C3)(C(C)C)C(=O)N12 [Ergocryptine, ergocryptine] . Is its Ki strictly less than 10 µM?
Response: Condition not met

Prompt: Consider the compound CC(C)[C@@]1(NC(=O)[C@@H]2C=C3c4cccc5[nH]cc(c45)C[C@H]3N(C)C2)O[C@@]2(O)[C@@H]3CCCN3C(=O)[C@H](Cc3ccccc3)N2C1=O [Ergocristine, ergocristine] . Is its Ki strictly less than 10 µM?
Response: Condition not met

We next turn to a different compound, shown below.
Prompt: Consider the compound CCN(CC)C(=O)N[C@H]1C[C@@H]2c3cccc4[nH]cc(c34)C[C@H]2N(C)C1 [Terguride, terguride] . Is its Ki strictly less than 10 µM?
Response: Condition met

====

- TARGET_OR_TEST_SYSTEM: serotonin receptors derived from rat hypothalamus
- TEST_DESCRIPTION: Displacement of S probe from natural receptor
- CONDITION_DETAILS: 10 mg protein, 0.25 μmole S in 1 mL (250 μM), 37 °C, mean ± SD, n = 4; read-out: Ki, S ligand, Rat hypothalamus
Counter-ions that a name gives are not always drawn.
What Ki was measured for each of the following?
Answers are plain numbers, in nM.

Reference set (5 entries):
The molecule `CC(C)[C@H]1C(=O)N2CCC[C@H]2[C@]2(O)O[C@](NC(=O)[C@@H]3C=C4c5cccc6[nH]cc(c56)C[C@H]4N(C)C3)(C(C)C)C(=O)N12` showed Ki equal to 20

The molecule `CC1=C[C@@H]2c3cccc4[nH]cc(c34)C[C@H]2N(C)C1` showed Ki equal to 1.2

The molecule CCN(CC)C(=O)N[C@H]1C[C@@H]2c3cccc4[nH]cc(c34)C[C@H]2N(C)C1 [Terguride, terguride] showed Ki equal to 1.3

The molecule C[C@@H](CO)NC(=O)[C@@H]1C=C2c3cccc4[nH]cc(c34)C[C@H]2N(C)C1 [Ergonovine, ergonovine maleate] showed Ki equal to 1.2

The molecule CCCN1C[C@H](CSC)C[C@@H]2c3cccc4[nH]cc(c34)C[C@H]21 [Pergolide, pergolide mesylate] showed Ki equal to 6

Parameter requested: Ki. Apply to each item below.
1. CC(C)C[C@H]1C(=O)N2CCC[C@H]2[C@]2(O)O[C@](NC(=O)[C@@H]3C=C4c5cccc6[nH]cc(c56)C[C@H]4N(C)C3)(C(C)C)C(=O)N12
2. CC(C)[C@@]1(NC(=O)[C@@H]2C=C3c4cccc5[nH]cc(c45)C[C@H]3N(C)C2)O[C@@]2(O)[C@@H]3CCCN3C(=O)[C@H](Cc3ccccc3)N2C1=O

Response:
[10, 6.8]
